As shown below, each of these molecules has a reported Ratio value.
- Test Method Notes: Ratio of receptor binding inhibitory concentrations against somatostatin receptors and mu opioid receptors from rat brain […] / IC50(vs [3H]naloxone)

Record excerpt, results attached:
smiles_representation=C[C@@H](O)[C@H](NC(=O)[C@@H]1NC(=O)[C@@H]([C@@H](C)O)NC(=O)[C@H](CCCN=C(N)N)NC(=O)[C@@H](Cc2c[nH]c3ccccc23)NC(=O)[C@H](Cc2ccc(O)cc2)NC(=O)[C@@H](NC(=O)[C@H](N)Cc2ccccc2)CSSC1(C)C)C(N)=O result=4090
smiles_representation=C[C@@H](O)[C@H](NC(=O)[C@H]1CSSC(C)(C)[C@H](NC(=O)[C@H](N)c2ccccc2)C(=O)N[C@@H](Cc2ccccc2)C(=O)N[C@H](Cc2c[nH]c3ccccc23)C(=O)N[C@@H](CCCCN)C(=O)N[C@H]([C@@H](C)O)C(=O)N1)C(=O)O result=0.45
smiles_representation=C[C@@H](O)[C@H](NC(=O)[C@@H]1NC(=O)[C@@H]([C@@H](C)O)NC(=O)[C@H](CCCCN)NC(=O)[C@@H](Cc2c[nH]c3ccccc23)NC(=O)[C@H](Cc2ccc(O)cc2)NC(=O)[C@@H](NC(=O)[C@H](N)c2ccccc2)CSSC1(C)C)C(N)=O result=6.6
smiles_representation=C[C@@H](O)[C@H](NC(=O)[C@@H]1NC(=O)[C@@H]([C@@H](C)O)NC(=O)[C@H](CCCCN)NC(=O)[C@@H](Cc2c[nH]c3ccccc23)NC(=O)[C@H](Cc2ccc(O)cc2)NC(=O)[C@@H](NC(=O)[C@H](N)Cc2ccccc2)CSSC1(C)C)C(N)=O result=187
smiles_representation=C[C@@H](O)[C@H](NC(=O)[C@@H]1NC(=O)[C@@H]([C@@H](C)O)NC(=O)[C@H](CCCCN)NC(=O)[C@H](Cc2c[nH]c3ccccc23)NC(=O)[C@H](Cc2ccc(O)cc2)NC(=O)[C@@H](NC(=O)[C@H](N)Cc2ccccc2)CSSC1(C)C)C(N)=O result=0.55
smiles_representation=C[C@@H](O)[C@H](NC(=O)[C@H]1CSSC[C@H](NC(=O)[C@H](N)Cc2ccc(O)cc2)C(=O)N[C@@H](Cc2ccc(O)cc2)C(=O)N[C@H](Cc2c[nH]c3ccccc23)C(=O)N[C@@H](CCCCN)C(=O)N[C@H]([C@@H](C)O)C(=O)N1)C(=O)O result=2
smiles_representation=C[C@H](N)C(=O)NCC(=O)N[C@H]1CSSC[C@@H](C(=O)O)NC(=O)[C@H](CO)NC(=O)[C@H]([C@@H](C)O)NC(=O)[C@H](Cc2ccccc2)NC(=O)[C@H]([C@@H](C)O)NC(=O)[C@H](CCCCN)NC(=O)[C@H](Cc2c[nH]c3ccccc23)NC(=O)[C@H](Cc2ccccc2)NC(=O)[C@H](Cc2ccccc2)NC(=O)[C@H](CC(N)=O)NC(=O)[C@H](CCCCN)NC1=O result=0.0003

Kindly consider the entry below.
Exam item: Return reported Ratio. Input molecule: C[C@@H](O)[C@H](NC(=O)[C@@H]1NC(=O)CNC(=O)[C@H](CCCCN)NC(=O)[C@@H](Cc2c[nH]c3ccccc23)NC(=O)[C@H](Cc2ccc(O)cc2)NC(=O)[C@@H](NC(=O)[C@H](N)Cc2ccccc2)CSSC1(C)C)C(N)=O
Marked response: 25

Values compiled from ChEMBL document CHEMBL1123370.
